test: Membrane permeability test using Caco-2 cells with preincubation; format: in vitro ADME; details: Caco-2; preincubation 20 to 24 hours; Apical FaSSIF/HBSS pH 6.0, Basal HBSS 4% BSA pH 7.4; 180 minutes; read-out: Caco2 Papp
Starred links: 1 amine or outer side, 2 acyl side, 3 side chain; linkers in the order of their positions; H or OH if unused. Positions of bridges follow the written chain, without caps; N, C: chain ends. Non-standard residues stand in square brackets, D forms with d. Residues, ends and D or L forms follow the SMILES beside them. *: point of attachment. NMedβ3hAla = C[C@H](CC(=O)[*:2])N(C)[*:1]; NMeF = CN[C@@H](Cc1ccccc1)C(=O)O; NMeGABA = CN(CCCC(=O)[*:2])[*:1]; NMeI = CC[C@H](C)[C@H](NC)C(=O)O; NMeD = CN[C@@H](CC(=O)O)C(=O)O; NMeL = CN[C@@H](CC(C)C)C(=O)O; NMeV = CN[C@H](C(=O)O)C(C)C; NMeA = CN[C@@H](C)C(=O)O; Piperidide = C1CCN(*)CC1; Abu = CC[C@H](N)C(=O)O; Sar = CNCC(=O)O; tBu = CC(C)(C)*
Property Name: Papp A→B (×10⁻⁶ cm/s)
I only need the number, in ×10⁻⁶ cm/s, no unit after it.

// known answers, use as guide
Compound: CC[C@@H]1NC(=O)[C@H](CC(C)C)N(C)C(=O)[C@H](CC(C)C)NC(=O)[C@H](C)N(C)C(=O)C[C@@H](C(=O)N2CCCCC2)N(C)C(=O)[C@H](C)N(C)C(=O)[C@H](CC(C)C)NC(=O)[C@H](CC(C)C)N(C)C(=O)CNC(=O)[C@H]([C@@H](C)CC)N(C)C(=O)[C@H](Cc2ccccc2)N(C)C(=O)[C@H](C)NC(=O)[C@H]([C@@H](C)CC)NC(=O)[C@H](Cc2ccccc2)N(C)C1=O [pd075] ([NMeA]L[NMeL][Abu][NMeF]IA[NMeF][NMeI]G[NMeL]L[NMeA][NMeD]-Piperidide; lactam N-14)
Unit Symbol: ×10⁻⁶ cm/s
Reading: 0.17

Compound: CC[C@@H]1NC(=O)[C@H](CC(C)C)N(C)C(=O)[C@H](COC(C)(C)C)NC(=O)[C@H]([C@@H](C)CC)NC(=O)[C@H](Cc2ccccc2)N(C)C(=O)CNC(=O)[C@H]([C@@H](C)CC)NC(=O)[C@H](CC(C)C)N(C)C(=O)CCCN(C)C(=O)C[C@@H](C)N(C)C(=O)[C@H](CC(C)C)NC(=O)[C@H](C)N(C)C(=O)[C@H](Cc2ccccc2)N(C)C(=O)[C@H](C(C)C)NC1=O [pd063] (cyclo([Abu]V[NMeF][NMeA]L[NMedβ3hAla][NMeGABA][NMeL]IG[NMeF]IS(tBu)[NMeL]))
Unit Symbol: ×10⁻⁶ cm/s
Reading: 0.03

Looking up CC(C)C[C@@H]1NC(=O)[C@@H]2CCCN2C(=O)[C@H](C(C)C)N(C)C(=O)[C@H](C)NC(=O)[C@H](CC(C)C)N(C)C(=O)[C@@H](C(C)C)NC(=O)C[C@@H](C(=O)N2CCCCC2)NC(=O)[C@H](C(C)C)N(C)C(=O)[C@H](Cc2ccccc2)N(C)C(=O)[C@H](CC(C)C)NC(=O)[C@H](COC(C)(C)C)NC(=O)[C@H](CC(C)C)N(C)C(=O)CN(C)C1=O [pd097] ([dV][NMeL]A[NMeV]PL[Sar][NMeL]S(tBu)L[NMeF][NMeV]D-Piperidide; lactam N-13) , I found its Papp A→B recorded as 0.54
